Every entry's value here was drawn from paper doi:10.1101/2025.06.05.658000.

experimental-system: HLA-DR (DRA1*01:01 / DRB1*15:03), soluble knob-into-hole Fc heterodimer (human)
measurement-description: ELISA
No end group written: not given here.
assay-endpoint: Kd (nM)
Give bare numbers, in nM.

Exercise: Reported Kd, binder KPVSKMRMATPLLMQALPM (also: biotin-labeled) [biotin-labeled human Class II-associated Invariant Chain Peptide (Bio-CLIP)] : ____
Solution: 5.31
